Molecular target: Renin (Homo sapiens, UniProt P00797)
Sequence (P00797 whole entry): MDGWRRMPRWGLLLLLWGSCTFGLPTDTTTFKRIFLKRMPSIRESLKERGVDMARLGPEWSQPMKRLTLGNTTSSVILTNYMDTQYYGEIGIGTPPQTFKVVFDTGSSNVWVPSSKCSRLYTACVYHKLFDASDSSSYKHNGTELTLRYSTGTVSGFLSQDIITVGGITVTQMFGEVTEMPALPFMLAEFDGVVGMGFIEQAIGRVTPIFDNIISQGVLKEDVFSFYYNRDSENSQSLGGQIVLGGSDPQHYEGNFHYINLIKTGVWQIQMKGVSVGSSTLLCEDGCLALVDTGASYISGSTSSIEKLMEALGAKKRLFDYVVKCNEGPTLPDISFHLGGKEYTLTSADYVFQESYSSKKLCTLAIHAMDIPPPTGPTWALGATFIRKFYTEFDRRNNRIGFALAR
Test: Inhibition of recombinant human renin using Dabcyl-gamma-Abu-Ile-His-Pro-Phe-His-Leu-Val-Ile-His-Thr-EDANS as substrate preincubated for 30 mins followed by 30 mins incubation in mouse C57BL/6 plasma by spectrofluorometry
endpoint: IC50 (nM)

{"smiles_text": "Cc1c(F)cccc1Cc1c(C(=O)N2CCNCC2)c2cnccc2n1-c1ccccc1", "study_system": "Renin (Homo sapiens, UniProt P00797)", "unit_name": "nM", "IC50": 410}

P: Cc1c(F)cccc1Cc1c(C(=O)N2CCNCC2)c2cc(O)cnc2n1-c1ccccc1
Q: Cc1ccc(F)cc1Oc1c(C(=O)N2CCNCC2)c2cc(O)cnc2n1-c1ccccc1
Lower value for measured IC50? Options: P , Q State the label of the item chosen.
Q
(Q: 57 nM, P: 159 nM)

* * *

molecular target: Renin (Homo sapiens, UniProt P00797); test: Inhibition of recombinant human renin using Dabcyl-gamma-Abu-Ile-His-Pro-Phe-His-Leu-Val-Ile-His-Thr-EDANS as substrate after 2 hrs by spectrofluorometry
endpoint: IC50 (nM)

{"smiles_text": "Cc1ccccc1Oc1c(C(=O)N2CCNCC2)c2cnccc2n1-c1ccccc1", "endpoint": "IC50", "readout_number": 847}
{"smiles_text": "CCCc1ccnc2c1c(C(=O)N1CCNCC1)c(Cc1cccc(F)c1C)n2-c1ccccc1", "endpoint": "IC50", "readout_number": 218}
{"smiles_text": "Cc1c(F)cccc1Cc1c(C(=O)N2CCNCC2)c2cnc(O)cc2n1C1CCCCC1", "endpoint": "IC50", "readout_number": 116}
{"smiles_text": "COc1cc2c(cn1)c(C(=O)N1CCNCC1)c(Oc1cc(F)ccc1C)n2-c1ccccc1", "endpoint": "IC50", "readout_number": 73}

A: O=C(c1c(Cc2ccccc2)n(-c2ccccc2)c2ncccc12)N1CCNCC1
B: Cc1ccc(F)cc1Oc1c(C(=O)N2CCNCC2)c2cnc(O)cc2n1-c1ccccc1
C: Cc1c(F)cccc1Cc1c(C(=O)N2CCNCC2)c2cc(O)cnc2n1-c1ccccc1
D: O=C(c1c(Cc2ccccc2)n(-c2ccccc2)c2ccncc12)N1CCNCC1
Sort (4 molecules) by IC50: min first. Thanks in advance for listing the labels in the requested order.
C, B, D, A
(C: 6 nM, B: 24 nM, D: 3400 nM, A: 6410 nM)

A: Cc1c(F)cccc1Cc1c(C(=O)N2CCN[C@@H](C)C2)c2c[nH]c(=O)cc2n1C1CCCCC1
B: Cc1c(F)cccc1Cc1c(C(=O)N2CCNCC2)c2cnc(O)cc2n1-c1ccccc1
Hi there! Just curious which has the higher IC50 between A and B . Lab log: write the label of the selected item as the result.
A
(A: 154 nM, B: 88 nM)

a: Cc1ccc(F)c(C)c1Oc1c(C(=O)N2CCN[C@@H](C)C2)c2c[nH]c(=O)cc2n1C1CCCCC1
b: Cc1ccc(F)cc1Oc1c(C(=O)N2CCN[C@@H](C)C2)c2cnc(O)cc2n1C1CCCCC1
Of the two listed items, a and b , which carries the larger IC50 figure? Answer format: the label of the selected item.
a
(a: 37 nM, b: 11 nM)

a: Cc1c(F)cc(F)cc1Oc1c(C(=O)N2CCNCC2)c2cnccc2n1-c1ccccc1
b: Cc1c(F)cccc1Cc1c(C(=O)N2CCNCC2)c2cnccc2n1-c1ccccc1
c: COC[C@H]1CN(C(=O)c2c(Cc3cccc(F)c3C)n(C3CCCCC3)c3cc(OC)ncc23)CCN1
d: CCc1ccnc2c1c(C(=O)N1CCNCC1)c(Oc1cc(F)ccc1C)n2-c1ccccc1
With regard to IC50, arrange the entries in ascending order, please. Please express your ranking as an ordered list of the labels.
b, a, d, c
(b: 8 nM, a: 650 nM, d: 1230 nM, c: 4090 nM)

P: COc1cc2c(cn1)c(C(=O)N1CCN[C@@H](CO)C1)c(Cc1cccc(F)c1C)n2C1CCCCC1
Q: COc1ccc2c(C(=O)N3CCNCC3)c(Oc3cc(F)ccc3C)n(-c3ccccc3)c2n1
Which one would you say has the larger IC50 value: P , or Q ? Write down the label attached to your selection.
P
(P: 3260 nM, Q: 15 nM)

a: Cc1ccc(F)c(C)c1Oc1c(C(=O)N2CCNCC2)c2cnc(O)cc2n1C1CCCCC1
b: O=C(c1c(Oc2ccccc2)n(-c2ccccc2)c2ncccc12)N1CCNCC1
c: COc1cc2c(cn1)c(C(=O)N1CCNCC1)c(Cc1cccc(F)c1C)n2C1CCCCC1
Ranking field: IC50; order: falling. # answer = labels listed in requested order
b, c, a

I: Cc1ccccc1Oc1c(C(=O)N2CCNCC2)c2cccnc2n1-c1ccccc1
II: COc1cc2c(cn1)c(C(=O)N1CCNCC1)c(Cc1cccc(F)c1C)n2-c1ccccc1
III: O=C(c1c(Oc2ccccc2F)n(-c2ccccc2)c2ncccc12)N1CCNCC1
# rank by IC50, ascending (min first) Thanks in advance for listing the labels in the requested order.
II, I, III

Measured values drawn from ChEMBL document CHEMBL1821665 for this set.
